Molecular target: human NaCT (Homo sapiens, UniProt Q86YT5)
Sequence (Q86YT5 whole entry): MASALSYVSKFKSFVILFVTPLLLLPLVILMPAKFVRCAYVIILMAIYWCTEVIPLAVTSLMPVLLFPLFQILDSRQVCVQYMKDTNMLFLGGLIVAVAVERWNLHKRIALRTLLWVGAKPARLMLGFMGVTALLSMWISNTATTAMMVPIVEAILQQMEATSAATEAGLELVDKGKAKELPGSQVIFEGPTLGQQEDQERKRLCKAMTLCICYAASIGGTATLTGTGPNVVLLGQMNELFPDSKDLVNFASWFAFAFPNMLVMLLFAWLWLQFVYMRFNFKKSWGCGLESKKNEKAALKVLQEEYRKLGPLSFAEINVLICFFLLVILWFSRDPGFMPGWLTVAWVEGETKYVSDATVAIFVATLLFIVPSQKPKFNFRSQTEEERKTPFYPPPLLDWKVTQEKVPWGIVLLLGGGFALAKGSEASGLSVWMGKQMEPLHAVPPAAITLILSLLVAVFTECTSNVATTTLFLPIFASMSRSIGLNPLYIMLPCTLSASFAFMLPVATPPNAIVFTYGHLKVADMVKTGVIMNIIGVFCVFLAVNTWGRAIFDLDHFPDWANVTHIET
Experiment: Uptake via human NaCT expressed in HRPE cells
Format: cell-based
Please respond with reported IC50 for every item in the list.
Numbers only, in µM.

Consider the following illustrative entries.
MOLECULE	ENDPOINT UNIT	IC50
O=C(O)CC(O)C(=O)O (stereo not drawn) [Malate, malate]	µM	3120
O=C(O)CC(O)(CC(=O)O)C(=O)O [Citrate]	µM	688

Would you kindly look at the next entry?
Which IC50 value belongs to O=C(O)CCC(=O)O [Succinate, succinate] ?
1920

====

Please respond with reported [^3H]-Succinate transport, % for every item in the list.
Molecular target: mouse NaCT (Mus musculus, UniProt Q67BT3)
Sequence (Q67BT3 whole entry): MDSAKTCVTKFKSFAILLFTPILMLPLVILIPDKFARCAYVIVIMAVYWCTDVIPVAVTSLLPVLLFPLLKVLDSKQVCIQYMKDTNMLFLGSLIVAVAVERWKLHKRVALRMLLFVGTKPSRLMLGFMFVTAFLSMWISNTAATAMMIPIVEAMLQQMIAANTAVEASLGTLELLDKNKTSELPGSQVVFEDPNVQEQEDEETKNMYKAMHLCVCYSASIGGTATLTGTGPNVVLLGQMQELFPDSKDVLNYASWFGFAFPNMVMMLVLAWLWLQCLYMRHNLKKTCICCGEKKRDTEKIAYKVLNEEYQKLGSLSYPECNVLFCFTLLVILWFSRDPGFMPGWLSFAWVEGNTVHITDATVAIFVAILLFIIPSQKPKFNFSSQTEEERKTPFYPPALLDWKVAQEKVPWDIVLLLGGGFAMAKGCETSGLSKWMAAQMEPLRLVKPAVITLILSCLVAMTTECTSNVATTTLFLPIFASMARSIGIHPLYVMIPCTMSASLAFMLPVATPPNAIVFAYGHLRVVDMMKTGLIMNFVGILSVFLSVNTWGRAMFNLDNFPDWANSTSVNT
Test: Transport via mouse NaCT expressed in HRPE cells
Type: cell-based
Conditions: [3H]-succinate 0.1 μM; substrate analog 2 mM; control = 100
Give bare numbers, in %.

COMPOUND	MEASURED TARGET	EXPERIMENTAL VALUE
O=C(O)CC(O)C(=O)O (centres unmarked) [Malate, malate]	mouse NaCT (Mus musculus, UniProt Q67BT3)	3
O=C(O)CC(O)(CC(=O)O)C(=O)O [Citrate]	mouse NaCT (Mus musculus, UniProt Q67BT3)	3

Value sought for every listed compound: [^3H]-Succinate transport, %.
1. CC(=O)C(=O)O [Pyruvate, pyruvate]
2. O=C(O)/C=C(/CC(=O)O)C(=O)O [cis-Aconitate, cis-aconitate]
3. O=C(O)CCC(=O)O [Succinate, succinate]

104
43
5

====

Target: UniProt Q86YT5
Assay: Uptake via human NaCT expressed in HRPE cells
Type: cell-based
Conditions: [14C]-citrate 20 μM; pH 7.5; indicated salt
PROPERTY LABEL: Citrate Uptake, cDNA-specific (pmol/10^6 cells/min)
Give bare numbers, in pmol/10^6 cells/min.

Value sought for every listed compound: Citrate Uptake, cDNA-specific.
1. O=C([O-])[C@H](O)[C@@H](O)[C@H](O)[C@H](O)CO.[Na+] [Sodium gluconate]
2. [Cl-].[Li+] [LiCl]
3. [Cl-].[Na+] [NaCl]

1. 60.1
2. 0.7
3. 58.4

====

Target: UniProt:Q86YT5
Assay: Uptake via human NaCT expressed in HRPE cells
Format: cell-based
Details: [14C]-citrate 20 μM; unlabeled compound 2.5 mM
Please respond with reported [^14C]-Citrate Uptake (cDNA-specific) for every item in the list.
Answers are plain numbers, in pmol/10^6 cells/min.

Consider the following illustrative entries.
MOLECULE	ENDPOINT UNIT	[^14C]-Citrate Uptake (cDNA-specific)
O=C(O)CCC(=O)O [Succinate, succinate]	pmol/10^6 cells/min	32.1
O=C(O)/C=C(/CC(=O)O)C(=O)O [cis-Aconitate, cis-aconitate]	pmol/10^6 cells/min	55.5
O=C(O)CC(O)(CC(=O)O)C(=O)O [Citrate]	pmol/10^6 cells/min	7.7

Which [^14C]-Citrate Uptake (cDNA-specific) value belongs to O=C(O)CC(O)C(=O)O (stereo not shown) [Malate, malate] ?
29.5

====

Biological target: mouse NaCT (Mus musculus, UniProt Q67BT3)
Assay: Transport via mouse NaCT expressed in HRPE cells
Format: cell-based
Conditions: [14C]-citrate 10 μM; substrate analog 2 mM
Please respond with reported [^14C]-Citrate transport (NaCT-specific) for every item in the list.

COMPOUND	EXPERIMENTAL VALUE
O=C(O)CC(O)C(=O)O (stereo not shown) [Malate, malate]	0.2 ± 0.1 pmol/10^6 cells/min
O=C(O)CCC(=O)O [Succinate, succinate]	0.1 ± 0.1 pmol/10^6 cells/min
O=C(O)/C=C(/CC(=O)O)C(=O)O [cis-Aconitate, cis-aconitate]	18.1 ± 1.8 pmol/10^6 cells/min

Would you kindly look at the next entry?
Which [^14C]-Citrate transport (NaCT-specific) value belongs to O=C(O)CC(O)(CC(=O)O)C(=O)O [Citrate] ?
0.7 ± 0.1 pmol/10^6 cells/min

====

Biological target: rat NaCT (Rattus norvegicus)
Assay: Uptake via rat NaCT expressed in HRPE cells
Assay type: cell-based
Conditions: relative to NaCl; [14C]citrate 7 μM
PROPERTY LABEL: Citrate Uptake, cDNA-specific, % (%)
Give bare numbers, in %.

Consider the following illustrative entries.
COMPOUND	ENDPOINT UNIT	Citrate Uptake, cDNA-specific, %
[Cl-].[Na+]	%	100
[Cl-].[Li+]	%	3
OC[C@@H](O)[C@@H](O)[C@H](O)[C@H](O)CO	%	0
O=C([O-])[C@H](O)[C@@H](O)[C@H](O)[C@H](O)CO.[Na+] [Sodium gluconate]	%	77

Would you kindly look at the next entry?
Which Citrate Uptake, cDNA-specific, % value belongs to CNC[C@H](O)[C@@H](O)[C@H](O)[C@H](O)CO.Cl [NMDG chloride, N-methyl-D-glucamine chloride] ?
1

====

Molecular target: ceNaCT (Caenorhabditis elegans, UniProt P32739, I91S/L182M)
Test: Uptake via ceNaCT expressed in HRPE cells
PROPERTY LABEL: Competition with [^14C]citrate for ceNaCT-mediated uptake

COMPOUND	MEASURED TARGET	EXPERIMENTAL VALUE
O=C(O)/C=C/C(=O)O [Fumarate]	ceNaCT (Caenorhabditis elegans, UniProt P32739, I91S/L182M)	inhibited markedly
O=C(O)CCC(=O)C(=O)O [2-Oxoglutarate]	ceNaCT (Caenorhabditis elegans, UniProt P32739, I91S/L182M)	inhibited markedly

====

Molecular target: ceNaCT (Caenorhabditis elegans, UniProt P32739, I91S/L182M)
Sequence (P32739 1-551 I91S/L182M): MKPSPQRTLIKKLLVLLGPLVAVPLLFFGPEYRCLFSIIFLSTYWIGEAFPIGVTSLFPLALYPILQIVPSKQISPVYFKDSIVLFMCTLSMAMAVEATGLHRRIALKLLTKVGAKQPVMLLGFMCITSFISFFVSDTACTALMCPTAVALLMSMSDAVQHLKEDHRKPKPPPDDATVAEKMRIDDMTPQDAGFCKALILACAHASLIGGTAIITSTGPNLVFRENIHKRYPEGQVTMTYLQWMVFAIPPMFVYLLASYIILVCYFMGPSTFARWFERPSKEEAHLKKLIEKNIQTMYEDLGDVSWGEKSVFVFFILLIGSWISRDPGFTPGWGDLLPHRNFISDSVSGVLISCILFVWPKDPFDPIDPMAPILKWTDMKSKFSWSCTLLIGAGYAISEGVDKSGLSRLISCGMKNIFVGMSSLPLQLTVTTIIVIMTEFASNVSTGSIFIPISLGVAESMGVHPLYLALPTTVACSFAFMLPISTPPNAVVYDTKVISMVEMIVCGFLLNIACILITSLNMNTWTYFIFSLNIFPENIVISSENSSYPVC
Experiment: Uptake via ceNaCT expressed in HRPE cells
Conditions: competitor 2.5 mM; [14C]citrate 15 μM
PROPERTY LABEL: Competition with [^14C]citrate for ceNaCT-mediated uptake

MOLECULE	EXPERIMENTAL VALUE
O=C(O)CCC(=O)O [Succinate, succinate]	inhibited markedly
O=C(O)CC(O)C(=O)O (stereo not shown) [Malate, malate]	inhibited markedly

====

Target: human NaCT (Homo sapiens)
Experiment: Uptake via human NaCT expressed in HRPE cells
Format: cell-based
Please respond with reported [^14C]-Citrate Uptake, % for every item in the list.
Lab note: write values as number then unit, every time.

Value sought for every listed molecule: [^14C]-Citrate Uptake, %.
1. O=C(O)/C=C/C(=O)O [Fumarate]
2. O=C(O)/C=C\C(=O)O [Maleate]
3. CC(O)C(=O)O (stereo not shown) [Lactate, lactate]
4. O=C(O)CC(=O)O [Malonate, malonate]

1: 92%; 2: 121%; 3: 128%; 4: 120%

====

Target: rat NaCT (Rattus norvegicus, UniProt Q8CJ44)
Sequence (Q8CJ44 whole entry): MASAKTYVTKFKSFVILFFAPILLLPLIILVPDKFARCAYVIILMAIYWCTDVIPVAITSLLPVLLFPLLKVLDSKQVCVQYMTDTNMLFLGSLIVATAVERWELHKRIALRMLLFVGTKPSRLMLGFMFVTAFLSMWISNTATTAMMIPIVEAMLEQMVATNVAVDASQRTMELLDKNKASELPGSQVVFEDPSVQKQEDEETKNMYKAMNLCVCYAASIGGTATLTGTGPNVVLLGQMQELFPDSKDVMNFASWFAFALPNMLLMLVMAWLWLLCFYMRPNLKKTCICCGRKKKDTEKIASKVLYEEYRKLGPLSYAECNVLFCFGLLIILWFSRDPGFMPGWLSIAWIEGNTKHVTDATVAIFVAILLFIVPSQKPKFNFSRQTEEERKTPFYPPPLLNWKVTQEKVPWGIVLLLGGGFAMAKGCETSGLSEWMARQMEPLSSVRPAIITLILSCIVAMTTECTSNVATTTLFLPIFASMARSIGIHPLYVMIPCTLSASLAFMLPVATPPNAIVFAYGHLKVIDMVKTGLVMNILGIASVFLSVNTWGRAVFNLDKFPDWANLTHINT
Assay: Uptake via rat NaCT expressed in HRPE cells
Assay type: cell-based
Details: [14C]citrate 7 μM; pH 7.5; indicated salt
PROPERTY LABEL: Citrate Uptake, cDNA-specific

COMPOUND	EXPERIMENTAL VALUE
O=C([O-])[C@H](O)[C@@H](O)[C@H](O)[C@H](O)CO.[Na+] [Sodium gluconate]	29.1 ± 2.3 pmol/10^6 cells/min
CNC[C@H](O)[C@@H](O)[C@H](O)[C@H](O)CO.Cl [NMDG chloride, N-methyl-D-glucamine chloride]	0.4 ± 0.3 pmol/10^6 cells/min
OC[C@@H](O)[C@@H](O)[C@H](O)[C@H](O)CO [Mannitol]	0.1 ± 0.1 pmol/10^6 cells/min
[Cl-].[Li+] [LiCl]	1.1 ± 0.1 pmol/10^6 cells/min

Would you kindly look at the next entry?
Which Citrate Uptake, cDNA-specific value belongs to [Cl-].[Na+] [NaCl] ?
38.0 ± 3.3 pmol/10^6 cells/min

====

Target: rat NaCT (Rattus norvegicus, UniProt Q8CJ44)
Experiment: Uptake via rat NaCT expressed in HRPE cells
Assay type: cell-based
PROPERTY LABEL: pIC50
Numbers only, as −log10 of the molar value.

MOLECULE	pIC50
O=C(O)CCC(=O)O [Succinate, succinate]	3.76

Would you kindly look at the next entry?
Which pIC50 value belongs to O=C(O)CC(O)(CC(=O)O)C(=O)O [Citrate] ?
4.55
